meta.source: the NIST ThermoML archive (doi:10.1016/j.jct.2019.02.015)

Reported speed of sound by item:
experimental_conditions: 293.15 K; 101.33 kPa; Liquid; Single path-length method

# compound, result_unit, speed of sound
rows = [
    ("CCCC(=O)[O-].CCCCCCCC[NH+](CCCCCCCC)CCCCCCCC [trioctylammonium butanoate]", "m/s", 1377.6),
    ("CCCCCC(=O)[O-].CCCCCCCC[NH+](CCCCCCCC)CCCCCCCC [trioctylammonium hexanoate]", "m/s", 1384),
    ("CCCC(=O)[O-].CCCCCC[NH+](CCCCCC)CCCCCC [trihexylammonium butanoate]", "m/s", 1345),
    ("CCCCCCCC(=O)[O-].CCCCCC[NH+](CCCCCC)CCCCCC [trihexylammonium octanoate]", "m/s", 1365.7),
    ("CCCCCCCC(=O)[O-].CCCCCCCC[NH+](CCCCCCCC)CCCCCCCC [trioctylammonium octanoate]", "m/s", 1393.1),
    ("CCCCCC(=O)[O-].CCCCCC[NH+](CCCCCC)CCCCCC [trihexylammonium hexanoate]", "m/s", 1353.3),
]
